The following compounds are shown together with reported Cmax values.
Test: Peak concentration at a single subcutaneous administration of 40 mg/kg in mice
Format: ADME, organism-based
Design: dose 40 mg/kg, route subcutaneous
Details: mouse, in vivo, sc
value_type: Cmax (ng/mL)

compound: C[C@H]1C([C@H](O)C2CC2)=C(C(=O)[O-])N2C(=O)[C@H]([C@@H](C)O)C12.[Na+] (some centres undefined)
value_type: Cmax
unit_abbrev: ng/mL
measured: 18100
--
compound: CC(C)[C@@H](O)C1=C(C(=O)[O-])N2C(=O)[C@H]([C@@H](C)O)C2[C@H]1C.[Na+] (some centres undefined)
value_type: Cmax
unit_abbrev: ng/mL
measured: 25000
--
compound: C[C@@H](O)[C@H]1C(=O)N2C(C(=O)O)=C(S[C@@H]3CN[C@H](C(=O)N(C)C)C3)[C@H](C)[C@H]12
value_type: Cmax
unit_abbrev: ng/mL
measured: 7600
--
compound: CO[C@H]1CCC[C@H]2C1=C(C(=O)[O-])N1C(=O)[C@H]([C@@H](C)O)[C@@H]21.[Na+] [SANFETRINEM SODIUM]
value_type: Cmax
unit_abbrev: ng/mL
measured: 28800

###

System: Klebsiella aerogenes
Assay: Compound was evaluated for in vitro antibacterial activity against Klebsiella aerogenes 1522 E strain by agar dilution method
Assay type: functional
The following molecules are shown together with reported MIC values.
value_type: MIC (µg/mL)

molecule: CC[C@H](O)C1=C(C(=O)[O-])N2C(=O)[C@H]([C@@H](C)O)C2[C@H]1C.[Na+] (some centres undefined)
value_type: MIC
measured: 0.781
--
molecule: C[C@H]1C([C@H](O)C(C)(C)C)=C(C(=O)[O-])N2C(=O)[C@H]([C@@H](C)O)C12.[Na+] (some centres undefined)
value_type: MIC
measured: 6.25
--
molecule: CCC(C)[C@@H](O)C1=C(C(=O)[O-])N2C(=O)[C@H]([C@@H](C)O)C2[C@H]1C.[Na+] (some centres undefined)
value_type: MIC
measured: 3.12
--
molecule: CO[C@H]1CCC[C@H]2C1=C(C(=O)[O-])N1C(=O)[C@H]([C@@H](C)O)[C@@H]21.[Na+] [SANFETRINEM SODIUM]
value_type: MIC
measured: 0.391

###

Assay: Tmax at a single subcutaneous administration of 40 mg/kg in mice
Assay type: ADME, organism-based
Set-up: dose 40 mg/kg, route subcutaneous
Conditions: mouse, in vivo, sc
value_type: Tmax (min)

molecule: CO[C@H]1CCC[C@H]2C1=C(C(=O)[O-])N1C(=O)[C@H]([C@@H](C)O)[C@@H]21.[Na+] [SANFETRINEM SODIUM]
measured: 22.2
//
molecule: C[C@H]1C([C@H](O)C2CC2)=C(C(=O)[O-])N2C(=O)[C@H]([C@@H](C)O)C12.[Na+] (some centres undefined)
measured: 10.2
//
molecule: C[C@@H](O)[C@H]1C(=O)N2C(C(=O)O)=C(S[C@@H]3CN[C@H](C(=O)N(C)C)C3)[C@H](C)[C@H]12
measured: 12.6
//
molecule: CC(C)[C@@H](O)C1=C(C(=O)[O-])N2C(=O)[C@H]([C@@H](C)O)C2[C@H]1C.[Na+] (some centres undefined)
measured: 15

###

System: Escherichia coli
Assay: Compound was evaluated for in vitro antibacterial activity against Escherichia coli 1507 E strain by agar dilution method
Format: functional
value_type: MIC (µg/mL)

molecule: C[C@H]1C([C@H](O)C2CC2)=C(C(=O)[O-])N2C(=O)[C@H]([C@@H](C)O)C12.[Na+] (some centres undefined)
measured: 0.049
//
molecule: CC(C)[C@@H](O)C1=C(C(=O)[O-])N2C(=O)[C@H]([C@@H](C)O)C2[C@H]1C.[Na+] (some centres undefined)
measured: 0.049
//
molecule: C[C@H]1C([C@H](O)C2CCCC2)=C(C(=O)[O-])N2C(=O)[C@H]([C@@H](C)O)C12.[Na+] (some centres undefined)
measured: 0.195
//
molecule: CC[C@@H](O)C1=C(C(=O)[O-])N2C(=O)[C@H]([C@@H](C)O)C2[C@H]1C.[Na+] (some centres undefined)
measured: 0.098
